src = the supplement of paper PMC10981050

For each entry below, report its cell viability value.
test system: K562; assay: cell viability relative to vehicle control; higher = less cytotoxic; conditions: 10 µM; SRSF2 genotype: SRSF2 wt/wt;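 note: after 48 h exposure read by CellTiter-Glo luminescence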
Hey, just the number and the unit after it is fine.

For every listed record, write down its cell viability.
1. NC(=O)c1cccc2cn(-c3ccc(C4CCCNC4)cc3)nc12 (stereo not drawn) [MK-4827(Niraparib)]
2. CC(C)OC(=O)C(C)(C)Oc1ccc(C(=O)c2ccc(Cl)cc2)cc1 [Fenofibrate (Tricor, Trilipix)]
3. CNC(=O)c1cc(Oc2ccc3nc(N[C@@H]4CCCC[C@H]4O)sc3c2)ccn1

Result block:
["86.9%", "85.1%", "89.4%"]

----------
tested on: OCI-AML2; assay: cell viability relative to vehicle control; higher = less cytotoxic; settings: 10 µM; SRSF2 genotype: P95H/wt
Structures can show the parent of a compound that is named as a salt.
Please provide measured cell viability for the entries that follow.
Write your answer as a measured quantity: the number, then the unit.

See these solved cases before continuing.
1. COc1ccc2[nH]cc(/C=C3\C(=O)Nc4ccc(NC(=O)CCN5CCCCC5)cc43)c2c1; 0.4%
2. CC(=O)O[C@H](CC(=O)O)C[N+](C)(C)C [O-Acetyl-L-carnitine hydrochloride]; 105%
3. COc1ccc(CCO[C@@H]2O[C@H](CO[C@@H]3OC[C@H](O)[C@H](O)[C@H]3O)[C@@H](OC(=O)/C=C/c3ccc(O)c(OC)c3)[C@H](O[C@@H]3O[C@@H](C)[C@@H](O)[C@@H](O)[C@H]3O)[C@H]2O)cc1O [Angoroside C]; 105%
4. COc1cc(F)c(F)c(Nc2ccc(I)cc2F)c1NS(=O)(=O)C1(C[C@H](O)CO)CC1 [Refametinib (RDEA119, Bay 86-9766)]; 35.4%
5. OC[C@H]1O[C@H](OCC2O[C@@H](O)[C@H](O)[C@@H](O)[C@@H]2O)[C@H](O)[C@@H](O)[C@H]1O (some centres not stated); 98.5%

// input: 3 compounds below; output: cell viability for each
1. COc1ccc(S(=O)(=O)NCc2ccc(C(=O)NCCc3ccc(Cl)cn3)cc2)cc1
2. COc1ccc(-c2cc(=O)c3c(O)cc(O[C@@H]4O[C@H](CO[C@@H]5O[C@@H](C)[C@H](O)[C@@H](O)[C@H]5O)[C@@H](O)[C@H](O)[C@H]4O)cc3o2)cc1
3. Cc1ccc(Sc2cncc3sc(C(N)=O)cc23)cc1

Result block:
92.7%
103%
68.8%

----------
tested on: MARIMO; assay: cell viability relative to vehicle control; higher = less cytotoxic; conditions: 10 µM; SRSF2 genotype: SRSF2 P95H/wt
QUANTITY MEASURED: cell viability (%)
Answers are plain numbers, in %.

1) CC(=O)N1CCC(Nc2cc(C(=O)NC[C@H](O)CN3CCc4ccccc4C3)ncn2)CC1; 88.8

Would you mind listing cell viability for each of the following compounds?
1. COc1cc2c(cc1O)CC[n+]1cc3c(OC)c(OC)ccc3cc1-2 [Jatrorrhizine chloride]
2. CC[C@H](C)C(=O)O[C@H]1C[C@@H](C)C=C2C=C[C@H](C)[C@H](CC[C@@H]3C[C@@H](O)CC(=O)O3)[C@H]21

Result block:
1. 92.6
2. 74

----------
system: OCI-AML2; test: cell viability relative to vehicle control; higher = less cytotoxic; conditions: 10 µM; SRSF2 genotype: P95H/wt
QUANTITY MEASURED: cell viability (%)
Answers are plain numbers, in %.

1. CC(C)Oc1ccc(C(=O)N[C@H](CNC(=O)CN(C)C)Cc2ccc(-c3cn4cccc([C@H](C)O)c4n3)cc2)cc1Cl; 12.4

Would you be so kind as to report cell viability for each listed record?
1. Cn1nccc1Nc1nccc(-c2cc3c(s2)C(C)(C)N(CCN2CCOCC2)C3=O)n1
2. Nc1cc(C(F)(F)F)c(-c2cc(N3CCOCC3)nc(N3CCOCC3)n2)cn1

Result block:
1: 38.6; 2: 11.6

Below are 6 compounds. Give each one its cell viability.
1. CC(C)CN(C[C@@H](O)[C@H](Cc1ccccc1)NC(=O)O[C@H]1CCOC1)S(=O)(=O)c1ccc(N)cc1 [Amprenavir (Agenerase)]
2. NC1CC1c1ccc(-c2cccc(O)c2)cc1 (stereo not given)
3. Cc1cn([C@H]2C[C@H](O)[C@@H](CO)O2)c(=O)[nH]c1=O [Thymidine]
4. CC[C@H](c1ccc(O)cc1)[C@@H](CC)c1ccc(O)cc1 [Hexestrol (Bibenzyl)]
5. COc1ccc(C(=O)C2CCN(CC(=O)N(Cc3nc4c(c(=O)[nH]3)COCC4)CC3CC3)CC2)cc1
6. C=C1CC[C@@H]2[C@](C)(CO)[C@H](O)CC[C@@]2(C)[C@@H]1C/C=C1/C(=O)OC[C@H]1O [Andrographolide]

Result block:
[101, 87, 91.8, 100, 98.8, 23.4]

----------
tested on: K562; assay: cell viability relative to vehicle control; higher = less cytotoxic; settings: 10 µM; SRSF2 genotype: SRSF2 wt/wt
Provide the recorded cell viability for the entries that follow.
# answer = value followed by unit

Consider the following illustrative entries.
1) CC(=O)Oc1cc(C(F)(F)F)ccc1C(=O)O [Triflusal]; 99.7%
2) C[C@@H]1O[C@@H](O[C@@H]2[C@@H](O)[C@H](OCCc3ccc(O)c(O)c3)O[C@H](CO)[C@H]2OC(=O)/C=C/c2ccc(O)c(O)c2)[C@H](O)[C@H](O)[C@H]1O [Verbascoside]; 87.4%

Let's switch to this molecule now.
Query block: Data request, read-out cell viability, for C[C@@]12C[C@@]3(O)O[C@@H](O1)[C@]1(COC(=O)c4ccccc4)[C@H]3C[C@@]12O[C@@H]1O[C@H](CO)[C@@H](O)[C@H](O)[C@H]1O [Paeoniflorin]
Result block: 102%

----------
test system: MARIMO; assay: cell viability relative to vehicle control; higher = less cytotoxic; details: 10 µM; SRSF2 genotype: SRSF2 P95H/wt
Counter-ions that a name gives are not always drawn.
Could you mark each record YES if its cell viability falls strictly under 50%, and NO if it equals or exceeds it?

Check out these entries, answers already filled in.
1) CC(=O)Nc1cccc2c1c(Sc1ccc(Cl)cc1)c(C)n2CC(=O)O; NO
2) Cc1ccc(S(=O)(=O)c2ccc([N+](=O)[O-])o2)cc1; YES
3) O=C1O[C@H]2[C@@H]3OC(=O)c4cc(O)c(O)c(O)c4-c4c(cc(O)c(O)c4O)C(=O)OC[C@H]2O[C@@H](OC(=O)c2cc(O)c(O)c(O)c2)[C@@H]3OC(=O)c2cc(O)c(O)c3c2[C@@H]2C1=CC(=O)[C@](O)(O3)C2(O)O; NO
4) CN1CCN(CCCN2c3ccccc3Sc3ccc(C(F)(F)F)cc32)CC1 [Trifluoperazine 2HCl]; NO
5) CC(C)C[C@H](NC(=O)[C@H](Cc1ccccc1)NC(=O)c1cnccn1)B(O)O; YES
6) O=C1c2c(O)cc(O)cc2OC(c2ccc(O)c(O)c2)C1O (configuration not stated) [Taxifolin (Dihydroquercetin)]; NO

Query block: Does CCCCCCCCN=c1ccn(CCCCCCCCCCn2ccc(=NCCCCCCCC)cc2)cc1 [Octenidine Dihydrochloride] have cell viability strictly under 50%?
Result block: YES

Query block: Same question for `Cn1c(O)c(C2=c3ccccc3=NC2=O)c2ccccc21` please.
Result block: YES

Query block: Here is the next compound: COc1ccc(CC(C)NCC(O)c2ccc(O)c(NC=O)c2)cc1 (configuration not stated) [Formoterol hemifumarate]
Result block: NO

Query block: How about `Nc1ccc(C(=O)NCC(=O)O)cc1` ?
Result block: NO

Query block: Thanks! And `COCCNC(=O)Nc1ccc2nc(-c3cccs3)c(-c3cccs3)nc2c1` ?
Result block: NO

Query block: Also O=C1CC(c2c[nH]c3ccc(F)cc23)C(=O)N1 (configuration not stated) ?
Result block: NO

----------
system: MARIMO; test: cell viability relative to vehicle control; higher = less cytotoxic; conditions: 10 µM; SRSF2 genotype: SRSF2 wt/wt
Counter-ions that a name gives are not always drawn.
Task for the reader: assign each of the following molecules its reported cell viability.
One number for each entry, in %.

Solved entries (count: 10):
1) C[C@H](C[C@H](O)[C@H]1OC1(C)C)C1=C2C[C@H](O)[C@H]3[C@@]4(C)CCC(=O)C(C)(C)[C@@H]4CC[C@]3(C)[C@@]2(C)CC1 [Alisol B]; 48.2
2) CO[C@H]1C[C@H](O[C@H]2[C@H](C)O[C@@H](O[C@@H]3/C(C)=C/C[C@@H]4C[C@@H](C[C@]5(C=C[C@H](C)[C@@H](C6CCCCC6)O5)O4)OC(=O)[C@@H]4C=C(C)[C@@H](O)[C@H]5OC/C(=C\C=C\[C@@H]3C)[C@]54O)C[C@@H]2OC)O[C@@H](C)[C@@H]1O [Doramectin]; 29.4
3) Cc1ccc(-c2c(-c3nn(C)c4ncnc(N5CC[C@H](N6CCCCC6)C5)c34)cnn2C)cc1; 98.5
4) O=C(O)c1ccccc1C(=O)Nc1ccc(-c2ccccc2)cc1 [Kartogenin]; 107
5) CCOc1ccccc1OC(c1ccccc1)C1CNCCO1 (stereo not given) [Reboxetine mesylate]; 91.7
6) O=C(O)c1cc(=O)cc(C(=O)O)o1 [Chelidonic acid]; 106
7) CC(=O)c1ccccc1O [2'-Hydroxyacetophenone]; 96.6
8) CCc1cc(C(N)=S)ccn1 [Ethionamide]; 98.1
9) CCN(CC)CCOCCOC(=O)C1(c2ccccc2)CCCC1 [Pentoxyverine Citrate]; 104
10) O=C(O)/C=C/c1ccc(Cn2ccnc2)cc1 [Ozagrel HCl]; 109

Please look at the items below and tell me cell viability for each one, in order.
1. C[C@@H]1Cc2c([nH]c3ccccc23)[C@@H](c2c(F)cc(/C=C/C(=O)O)cc2F)N1CC(C)(C)F
2. CCN(CC)CC(O)CNc1ccc(NCC2CO2)c2c1C(=O)c1ccccc1C2=O (stereo not given)

Result block:
104
2.11

Please state, for each entry, its recorded cell viability.
1. CC(C)(C)S(=O)(=O)c1ccc2nccc(Nc3n[nH]c4ccc(F)cc34)c2c1
2. COCCOC(=O)C1=C(C)NC(C)=C(C(=O)OC/C=C/c2ccccc2)C1c1cccc([N+](=O)[O-])c1 (stereo not given) [Cilnidipine]
3. CCCCCCOc1cc(C)c(O)c(C)c1C [HTHQ(1-O-Hexyl-2,3,5-trimethylhydroquinone)]
4. CCCS(=O)(=O)Nc1ccc(F)c(C(=O)c2c[nH]c3ncc(-c4ccc(Cl)cc4)cc23)c1F [Vemurafenib (PLX4032, RG7204)]

Result block:
[99.5, 98.1, 96, 106]

Parameter requested: cell viability. Apply to each item below.
1. OC(Cn1cncn1)(Cn1cncn1)c1ccc(F)cc1F [Fluconazole]
2. CCOC(=O)[C@@H](N)Cc1ccc(-c2cc(O[C@H](c3ccc(Cl)cc3-n3ccc(C)n3)C(F)(F)F)nc(N)n2)cc1 [LX1606 hippurate]

Result block:
107
72.7

Look at each molecule and report its cell viability.
1. Cc1ncc(NC(=O)c2cccc(C(F)(F)F)c2)cc1-c1cnc(OC2CCOCC2)c(N2CCOCC2)c1
2. NC1(Cc2ccc(Cl)cc2)CCN(c2ncnc3[nH]ccc23)CC1
3. CC(CCC(=O)NCCS(=O)(=O)O)C1CCC2C3C(O)CC4CC(O)CCC4(C)C3CCC12C (stereo not given) [Taurochenodeoxycholic acid]
4. O=C(CCc1ccc(O)cc1)c1c(O)cc(O[C@@H]2O[C@H](CO)[C@@H](O)[C@H](O)[C@H]2O)cc1O [Trilobatin]
5. COc1ccccc1C(=O)Nc1cc2c(cc1N1CCCC1)n(C)c(=O)n2C

Result block:
[40.3, 35.1, 108, 105, 95.3]

Lab note: each molecule below needs its cell viability filled in.
1. O=NN(CCCl)C(=O)NC1CCCCC1 [Lomustine (CeeNU)]
2. C=C(C)[C@@H]1CC[C@]2(C(=O)O)CC[C@]3(C)[C@H](CC[C@@H]4[C@@]5(C)CCC(=O)C(C)(C)[C@@H]5CC[C@]43C)[C@@H]12 [Betulonic acid]

Result block:
1. 99.9
2. 20.9
